- System: UO-31 renal
- procedure.summary: NCI-60 one-dose screen, 48 h
- condition.info: 10 µM unless noted
This is part of a sample that, as a whole, favours compounds with a hit. Of some 83,000 tested, about 20% had one in any assay. Active and inactive are the calls of the source. Rule for the calls: active = growth percent below 10; inactive = the rest.
Allowed answers: class 1 = active, class 0 = inactive

Request: # outcome recorded in this test, key = `Brc1cccc(-c2cc(-c3ccc4c(c3)OCCO4)[nH]n2)c1`
Response: class 0

Request: # outcome recorded in this test, key = `Nc1ccc(N2CCOCC2)cc1`
Response: class 0

Request: # outcome recorded in this test, key = `O=C1/C(=C/c2ccc(Cl)c(Cl)c2)CN(C(=O)CCN2CCC(=NO)CC2)C/C1=C\c1ccc(Cl)c(Cl)c1`
Response: class 1

Request: # outcome recorded in this test, key = `CN1CCN(Cc2ccc(NC(=O)c3[nH]ncc3Nc3ncnc4[nH]ccc34)cc2)CC1`
Response: class 1

Request: # outcome recorded in this test, key = `COc1ccccc1-c1ccc2c(N)c(C(=O)c3ccc4c(c3)OCO4)sc2n1`
Response: class 0

Request: # outcome recorded in this test, key = `Cn1c(=O)c2c(ncn2CC[N+](C)(C)C)n(C)c1=O`
Response: class 0

Request: # outcome recorded in this test, key = `Cc1ccc(-c2nc(/C=N/Nc3cc(C)nc4ccc(Br)cc34)c(C)o2)cc1`
Response: class 1

Request: # outcome recorded in this test, key = `C/C(=C(/c1ccc(O)cc1)c1ccc(OCCN(C)C)cc1)c1ccccc1`
Response: class 0

Request: # outcome recorded in this test, key = `O=[N+]([O-])c1cccc(-c2nc3sccn3c2-c2ccnc(NCCNS(=O)(=O)c3ccc(C(F)(F)F)cc3)n2)c1`
Response: class 0

Request: # outcome recorded in this test, key = `Nc1cc2nc3ccccc3sc-2cc1=O`
Response: class 0

Request: # outcome recorded in this test, key = `O=C(Nc1ccc(CN2CCOCC2)cc1)c1[nH]ncc1Nc1ncnc2sccc12`
Response: class 1

Request: # outcome recorded in this test, key = `CCC(=O)Oc1ccc(/C(=C(\C)c2ccccc2)c2ccc(OCCN(CC)CC)cc2)cc1`
Response: class 0

Request: # outcome recorded in this test, key = `O=C1Nc2c(ccc(Cl)c2Cl)/C1=C/c1cc(Br)c(O)c(Br)c1`
Response: class 0

Request: # outcome recorded in this test, key = `COc1ccc(-c2cnoc2-c2cc(OC)c3c(c2)OCCO3)cc1`
Response: class 0

Request: # outcome recorded in this test, key = `COc1ccc(/C=C2\N=C3SC=C(N)N3C2=O)cc1`
Response: class 1

Request: # outcome recorded in this test, key = `CC/C(=C(\c1ccc(O)cc1)c1ccc(OCCN(C)CCN(C)C(=O)CCCCC(=O)c2c(C)[nH]c(/C=C3\N=C(c4ccc[nH]4)C=C3OC)c2C)cc1)c1ccccc1`
Response: class 0

Request: # outcome recorded in this test, key = `Cc1ccc2c(c1)C(=O)/C(=C/c1ccc(OCC(=O)c3ccccc3)cc1)O2`
Response: class 0

Request: # outcome recorded in this test, key = CCN(CC)CCCC(C)NCCCNc1cccc2cccnc12 (stereo unspecified)
Response: class 0

Request: # outcome recorded in this test, key = `Cc1ccn2c(-c3csc(Nc4cccc(O)c4)n3)c(C)nc2c1`
Response: class 0

Request: # outcome recorded in this test, key = `NC1=CC(=O)C(=O)c2ccccc21`
Response: class 0

Request: # outcome recorded in this test, key = `COc1ccc(-c2cc(-c3cccnc3)nc3sc4c(=O)n(-c5ccc(C)cc5)cnc4c23)cc1OC`
Response: class 0

Request: # outcome recorded in this test, key = `COc1cc(C#N)cc(OC)c1OCCN(CCOc1c(OC)cc(C#N)cc1OC)S(=O)(=O)c1ccc(C)cc1`
Response: class 0

Request: # outcome recorded in this test, key = `CC1(C)CC(=O)C(c2c(-c3ccccc3)[nH]c3[nH]c(=S)[nH]c(=O)c23)=C(O)C1`
Response: class 0

Request: # outcome recorded in this test, key = `O=C1/C(=C/c2ccc(F)cc2)CN(C(=O)CCN2CCC(=NO)CC2)C/C1=C\c1ccc(F)cc1`
Response: class 1

Request: # outcome recorded in this test, key = `COc1cc(/C=C2\CN(C(=O)CCN3CCC(=NO)CC3)C/C(=C\c3cc(OC)c(OC)c(OC)c3)C2=O)cc(OC)c1OC`
Response: class 1

Request: # outcome recorded in this test, key = `CCC(=O)OCc1cccc(OC)c1`
Response: class 0

Request: # outcome recorded in this test, key = `C(=N\Nc1ccccn1)/c1ccccn1`
Response: class 1

Request: # outcome recorded in this test, key = `O=C1NC(=O)C(CC(=O)n2c(-c3ccccc3)nc3ccccc32)C(=O)N1`
Response: class 0

Request: # outcome recorded in this test, key = `CN(C)c1ccc(/C=C\C2=[N+](C)c3ccccc3C2(C)C)cc1`
Response: class 0

Request: # outcome recorded in this test, key = `COc1cc(NCCCCN=C(N)NC(N)=NC(C)C)c2ncccc2c1`
Response: class 0

Request: # outcome recorded in this test, key = `COc1ccc2[nH]c(=O)c(/C=C/C(=O)c3ccc(Nc4nccc(-c5ccc6ccccc6c5)n4)cc3)cc2c1`
Response: class 0

Request: # outcome recorded in this test, key = CCCCCCCCCCCCNC(=O)[C@H]1CSC(c2ccc(OC)c(F)c2)N1 (stereo partly specified)
Response: class 1

Request: # outcome recorded in this test, key = `CCOC(=O)c1c2c(n3ccc(NC(=O)CCN4CCOCC4)cc13)C(=O)c1ncccc1C2=O`
Response: class 0

Request: # outcome recorded in this test, key = `CCN(CC)c1ccc(/C=C/C2=[N+](C)c3ccccc3C2(C)C)cc1`
Response: class 0

Request: # outcome recorded in this test, key = `CC#CC#Cc1cccc(=O)o1`
Response: class 0

Request: # outcome recorded in this test, key = `CCN(CC)Cc1cc(Nc2c3ccc(Cl)cc3nc3c(C)cccc23)ccc1O`
Response: class 1

Request: # outcome recorded in this test, key = `NC(=S)N/N=C/c1ccc(OCc2ccccc2)cc1`
Response: class 0

Request: # outcome recorded in this test, key = `C=C(C[n+]1ccccc1)[C@@H]1CC[C@]2(C(=O)OC)CC[C@]3(C)[C@H](CC[C@@H]4[C@@]5(C)CC[C@H](O)C(C)(C)[C@@H]5CC[C@]43C)[C@@H]12`
Response: class 0

Request: # outcome recorded in this test, key = `COc1cc(-c2cnc3nonc3n2)c(OC)c2c1OCO2`
Response: class 0

Request: # outcome recorded in this test, key = `Cc1nc2nc(N)nc(N)c2nc1C`
Response: class 0

Request: # outcome recorded in this test, key = `CNCc1cccc2c1OCCOCCOCCN(C)S(=O)(=O)c1ccc(cc1)-c1cnc(N)c(n1)C(=O)N2`
Response: class 0

###

- System: LOX IMVI melanoma
- procedure.summary: NCI-60 one-dose screen, 48 h
- condition.info: 10 µM unless noted
About 83,000 compounds went through this panel and 20% of them were active in at least one assay; those are over-represented in the sample as a whole. Calls of active or inactive are those of the source. The calls were made as follows: active = growth percent below 10; inactive = the rest.
Allowed answers: 1 (yes) (active), 0 (no) (inactive)

Request: # outcome recorded in this test, key = `CC/C=C\C[C@H](O)C/C=C1/C(=O)C=C[C@@H]1C/C=C\CCCC(=O)OC(C)C`
Response: 1 (yes)

Request: # outcome recorded in this test, key = CCCCCCCCCCCCCCCCCCNC(=O)[C@H]1CSC(c2ccc(F)c(OC)c2)N1 (stereo not given in full)
Response: 0 (no)

Request: # outcome recorded in this test, key = `COc1ccc2c(c1)C(=O)/C(=C/c1cccc(OCC(=O)Nc3nc4c(s3)CCCC4)c1)O2`
Response: 1 (yes)

Request: # outcome recorded in this test, key = `COc1cc2c(c(OC)c1OC)-c1ccc(N=NC(N)=S)c(=O)cc1[C@@H](NC(C)=O)CC2`
Response: 0 (no)

Request: # outcome recorded in this test, key = `CC(=O)C1=C(O)C=C2Oc3c(C(=O)/C=C/c4ccccc4)c(O)c(C)c(O)c3[C@]2(C)C1=O`
Response: 0 (no)

Request: # outcome recorded in this test, key = C=C1CCC2C3(C)COC(c4ccc(OC)cc4Br)OC3CCC2(C)C1/C=C/C1=CCOC1=O (stereo not given)
Response: 0 (no)

Request: # outcome recorded in this test, key = `CCn1cc2c(cc1=O)-c1nc3ccccc3c3ccnc(c13)C2=O`
Response: 0 (no)

Request: # outcome recorded in this test, key = `CCN(CC)CCC(=O)c1ccc(OC)c2ccccc12`
Response: 0 (no)

Request: # outcome recorded in this test, key = `COc1ccccc1-c1ccc2c(N)c(C(=O)c3ccc4c(c3)OCO4)sc2n1`
Response: 0 (no)

Request: # outcome recorded in this test, key = `Cc1cc2cc3cc(C)c(N(C)C)cc3[n+](C)c2cc1N(C)C`
Response: 0 (no)

Request: # outcome recorded in this test, key = `O=C1c2cccnc2C(=O)c2c1c(C(=O)OCCN1CCCCC1)c1ccccn21`
Response: 1 (yes)

Request: # outcome recorded in this test, key = `CCCNc1nc(SC)nc(-c2cccc(N)c2)c1C#N`
Response: 0 (no)

Request: # outcome recorded in this test, key = `CN1/C(=C\C=C\C2=[N+](C)c3ccccc3C2(C)C)C(C)(C)c2ccccc21`
Response: 1 (yes)

Request: # outcome recorded in this test, key = `Cc1cc(=O)oc2cc(Oc3nc(-c4cccs4)cn4c(-c5cccs5)cnc34)ccc12`
Response: 0 (no)

Request: # outcome recorded in this test, key = `COc1ccc(-c2cc(-c3cccnc3)nc3sc4c(=O)n(-c5ccc(C)cc5)cnc4c23)cc1OC`
Response: 0 (no)

Request: # outcome recorded in this test, key = `O=C(CO[N+](=O)[O-])Nc1ccc(C(=O)/C=C/c2ccc3c(c2)OCO3)cc1`
Response: 0 (no)

Request: # outcome recorded in this test, key = `COc1ccc(/C=N\NC(=O)c2ccncc2)cc1O`
Response: 0 (no)

Request: # outcome recorded in this test, key = `O=C(Nc1cccc2[nH]c(C(F)(F)F)nc12)c1ccc(Br)cc1F`
Response: 0 (no)

Request: # outcome recorded in this test, key = `Cc1ccc(Nc2c(C(N)=O)cnc3ccc(-c4csc(N)n4)cc23)cc1`
Response: 0 (no)

Request: # outcome recorded in this test, key = CCCCCCCCCCCCNC(=O)[C@H]1CSC(c2ccc(OC)c(F)c2)N1 (stereo not given in full)
Response: 1 (yes)

Where do the numbers come from? From PubChem BioAssay (NCI).
